# Tested target: Aldehyde dehydrogenase, mitochondrial (Homo sapiens) (UniProt P05091)
# Assay: qHTS for Inhibitors of the Aldehyde Dehydrogenase Family (ALDH2) Primary screen (AID 2061308); also: nearly all actives have a fitted effect of over 55% in size
# Assay setup: ALDH2 enzyme inhibition qHTS, 1536-well; series mostly up to 56 µM
Records with an inconclusive call do not appear. Active and inactive are the calls of the source. Calls follow the shape of the dose curve; as a rule, active = well fitted inhibition curve with a large enough effect; inconclusive = small, poorly fitted or top-dose-only effect; inactive = flat fitted curve, though single readings scatter.
Property name: outcome

Worked examples follow.
CO[C@H]1C[C@@H]2CC[C@@H](C)[C@@](O)(O2)C(=O)C(=O)N2CCCC[C@H]2C(=O)O[C@H]([C@H](C)C[C@@H]2CC[C@@H](OC(=O)C(C)(CO)CO)[C@H](OC)C2)CC(=O)[C@H](C)/C=C(\C)[C@@H](O)[C@@H](OC)C(=O)[C@H](C)C[C@H](C)/C=C/C=C/C=C/1C ... inactive
O=S(=O)(NC1CCC(CNS(=O)(=O)c2c(F)cccc2F)CC1)c1ccc2c(c1)OCCO2 (configuration not stated) ... inactive
N#Cc1cccc(NC(=O)Nc2nnc(-c3ccncc3)s2)c1 ... inactive
O=c1ccc2ccc(OCCCCN3CCN(c4cccc5sccc45)CC3)cc2[nH]1 ... inactive
CCCn1c(C)nc2c(NCCN(C)C)nc(C)nc21 ... inactive

Ask: Return outcome for the following compound: Cc1cn2c(-c3cn[nH]c3)cnc2c(Nc2ccc(C(=O)N3CCNCC3)cc2F)n1
Reply: inactive

Ask: // Input: Cc1cc(NC(=O)Nc2cccc(-c3ccncc3)n2)ccc1Cl . Output its outcome only.
Reply: inactive

Ask: # return recorded outcome for input O=C(Nc1ccc(C(=O)Nc2nccs2)cc1)c1ccc2ccccc2c1
Reply: inactive

Ask: Identify outcome associated with the compound CN(C)[S+](=O)([O-])c1ccc(-c2cncc(NC(=O)c3cccs3)c2)cc1
Reply: inactive

Ask: For CC1=C(C(=O)NC2CCCCC2)C(c2ccccc2Br)N=C(Nc2nc3ccccc3o2)N1 (configuration not stated) , write its outcome.
Reply: inactive

* * *

// reported Potency per item
# Tested target: Retinaldehyde dehydrogenase 3 (Homo sapiens)
# Assay: qHTS for Inhibitors of the Aldehyde Dehydrogenase Family (ALDH1A3) Primary screen (AID 2061315); also: potency is read from the fitted curve at half-maximal effect
# Assay setup: ALDH inhibition qHTS; series mostly up to 56 µM
Results filed as inconclusive are left out. Calls of active or inactive are those of the source. Calls come from the whole dose curve; as a rule, active = well fitted inhibition curve with a large enough effect; inconclusive = small, poorly fitted or top-dose-only effect; inactive = no such curve, though single readings can be large or run the other way.

N#Cc1cccc(C#N)c1-c1nc2c3ccccc3c3cc(Cl)ccc3c2[nH]1 ... 25.1 µM (active)

Ask: State, in one line, measured Potency of COc1cc(O)ccc1OCCNCC(O)COc1cccc2[nH]c3ccccc3c12 (stereo not given)
Reply: 3.16 µM (active)

Ask: Using the record for CN(C)c1ccc(Nc2nc(N)n(C(=O)c3c(F)cccc3F)n2)cc1 , state its measured Potency.
Reply: 14.1 µM (active)

Ask: Give the measured Potency for O=C(O)C1CCN(c2ncc(-c3ccc4c(c3)OCCCO4)s2)CC1
Reply: 0.447 µM (active)

Ask: Specify Potency for COc1ccnc(CS(=O)c2nc3cc(OC(F)F)ccc3[nH]2)c1OC (stereo not given) and stop.
Reply: 31.6 µM (active)

* * *

# Tested target: Aldehyde dehydrogenase, mitochondrial (Homo sapiens)
# Assay: qHTS for Inhibitors of the Aldehyde Dehydrogenase Family (ALDH2) Primary screen (AID 2061308); also: nearly all actives have a fitted effect of over 55% in size
# Assay setup: ALDH2 enzyme inhibition qHTS, 1536-well; series mostly up to 56 µM
Inconclusive results are not listed. Activity calls are given as the source filed them. Calls follow the shape of the dose curve; as a rule, active = well fitted inhibition curve with a large enough effect; inconclusive = small, poorly fitted or top-dose-only effect; inactive = flat fitted curve, though single readings scatter.
Property name: outcome

Cn1c2cc(C=O)sc2c2cnn(Cc3ccccc3F)c(=O)c21 ... inactive
COC(=O)c1ccccc1S(=O)(=O)Nc1ccc(OC)cc1 ... inactive
Cc1cc2c(s1)c1cnn(Cc3c(Cl)cccc3Br)c(=O)c1n2C ... inactive
COc1ccc(-c2ccc(=O)n(CC(=O)NCCc3ccccc3)n2)cc1 ... inactive

Ask: Note outcome for the compound shown: COc1cc(O)c(C(CC(=O)N2CCCCCC2)c2ccc3c(c2)OCO3)c(OC)c1 (stereo not given)
Reply: inactive
